experiment: Volume of distribution at steady state in dog at 2 mg/kg, iv; type: ADME, organism-based, Canis lupus familiaris; settings: in vivo, read-out: Vdss
QUANTITY_KIND: Vd (L/kg)
Answers are plain numbers, in L/kg.

Exam item: Give the value of Vd reported for the following: Nc1nc(-c2cccc(-n3ccc4cc(C5CC5)cc(F)c4c3=O)c2CO)c2cc(C3=CCN(C4COC4)CC3)[nH]c2n1
Marked response: 1.77

###

experiment: MRT (0 to last) in dog at 5 mg/kg, po; type: ADME, organism-based, Canis lupus familiaris; conditions: in vivo
QUANTITY_KIND: MRT last
Form entry: enter the amount, then its unit.

Exam item: Give the value of MRT last reported for the following: Nc1nc(-c2cccc(-n3ccc4cc(C5CC5)cc(F)c4c3=O)c2CO)c2cc(C3=CCN(C4COC4)CC3)[nH]c2n1 [MILREBRUTINIB]
Marked response: 2.3 h

Source listed as ChEMBL document CHEMBL5053510.
